Examples of compounds with documented pIC50 follow.
Tgt: UniProt:O14791
Sequence (O14791 whole entry S342G/I384M, form open): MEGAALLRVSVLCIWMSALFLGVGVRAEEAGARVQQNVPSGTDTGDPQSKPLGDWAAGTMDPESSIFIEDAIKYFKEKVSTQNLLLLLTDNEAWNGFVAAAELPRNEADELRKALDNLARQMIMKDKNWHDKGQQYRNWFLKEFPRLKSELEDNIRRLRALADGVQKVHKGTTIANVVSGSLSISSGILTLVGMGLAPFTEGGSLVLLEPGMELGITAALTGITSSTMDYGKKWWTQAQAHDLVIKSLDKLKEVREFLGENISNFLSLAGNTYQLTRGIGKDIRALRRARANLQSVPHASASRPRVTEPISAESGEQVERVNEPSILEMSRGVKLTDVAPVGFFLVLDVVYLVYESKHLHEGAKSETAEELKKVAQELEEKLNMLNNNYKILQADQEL
Test name: MultiTox-Fluor Multiplex Cytotoxicity Assay in tet-inducible APOL1 T-REx-HEK293 cells (cell rescue, ratio of dead to live cells)
Format: cell-based
Recorded conditions: tet-inducible transgenic APOL1 T-REx-HEK293 cell lines, 50 ng/mL tet, 24 hours; read-out: IP50 (i.e., IC50 for cell proliferation)
Protocol: The MultiTox-Fluor Multiplex Cytotoxicity Assay is a single-reagent-addition, homogeneous, fluorescence assay that measures the number of live and dead cells simultaneously in culture wells. […] The MultiTox reagent was added to each well and placed back in the incubator for an additional 30 minutes. The plate was read on the EnVision plate reader. A ratio of dead to live cells was used to normalize, and data was imported, analyzed, and fit using Genedata Screener (Basel, Switzerland) software. […]
pIC50: −log10 of the molar value.

| Compound | pIC50 |
| --- | --- |
| CCc1cc2c(s1)CCO[C@@]21CCN(Cc2cn([C@H]3C[C@@H](S(C)(=O)=O)C3)nn2)[C@@H](C)C1 | 6.30 to 7.00 |
| CC(C)C(O)Cn1cc(CN2CC[C@]3(C[C@@H]2C)OCCc2c3sc(C(F)(F)F)c2CO)cn1 (stereo partly shown) | > 7.00 |
| [2H]C(OCC)c1cc2c(s1)[C@]1(CCN(Cc3cnn(CCS(C)(=O)=O)c3)[C@@H](C)C1)OCC2 (stereo partly shown) | > 7.00 |
| C[C@H]1C[C@@]2(CCN1Cc1ccc(C(=O)N(C)C)cc1)OCCc1c2sc(Cl)c1CO | 6.30 to 7.00 |
| C[C@H]1C[C@@]2(CCN1Cc1cnn(CC(O)C3(O)CCOC3)c1)OCCc1c2sc(C(F)(F)F)c1CO (stereo partly shown) | > 7.00 |
| CCc1cc2c(s1)CCO[C@@]21CCN(CC2CN(C(=O)C(C)(C)C)C2)[C@@H](C)C1 | 6.00 to 6.30 |
| CCc1cc2c(s1)CCOC21CCN(Cc2cnc(N3CCCCC3)s2)CC1 | 6.30 to 7.00 |
